# Tested on: 425362-245-T-J1 tumor spheroids, viability % test/control
# Run description: Anticancer human tumor 425362-245-T-J1 patient-derived melanoma cell line growth inhibition
# Conditions used: curve of first compound; second compound 0.03 µM; spheroids with HUVEC and MSC
pIC50: −log10 of the molar value.
Listing: pIC50 of selected molecules

Field: example entries. Status: answers known.
1. O=C(c1cc(Cc2n[nH]c(=O)c3ccccc23)ccc1F)N1CCN(C(=O)C2CC2)CC1 + CC[C@@]1(O)C(=O)OCc2c1cc1n(c2=O)Cc2cc3c(CN(C)C)c(O)ccc3nc2-1 :: > 7.02
2. Cc1cc(C)c(CNC(=O)c2cc(-c3ccc(CN4CCOCC4)cc3)cc3c2cnn3C2CCCC2)c(=O)[nH]1 + CC[C@@]1(O)C(=O)OCc2c1cc1n(c2=O)Cc2cc3c(CN(C)C)c(O)ccc3nc2-1 :: > 7.50

Qu. State its pIC50: COc1cc(C)[nH]c(=O)c1CN1CCc2c(Cl)cc(C(OC)C3COC3)c(Cl)c2C1=O (configuration not stated) + CC[C@@]1(O)C(=O)OCc2c1cc1n(c2=O)Cc2cc3c(CN(C)C)c(O)ccc3nc2-1
Ans. > 7.50

Qu. Tell me its pIC50 given Cn1ncnc1[C@H]1c2n[nH]c(=O)c3cc(F)cc(c23)N[C@@H]1c1ccc(F)cc1 + CC[C@@]1(O)C(=O)OCc2c1cc1n(c2=O)Cc2cc3c(CN(C)C)c(O)ccc3nc2-1 as the entry.
Ans. > 8.02

Qu. Using the record for Cc1sc2c(c1C)C(c1ccc(Cl)cc1)=NC(CC(=O)Nc1ccc(O)cc1)c1nnc(C)n1-2 (configuration not stated) + CC[C@@]1(O)C(=O)OCc2c1cc1n(c2=O)Cc2cc3c(CN(C)C)c(O)ccc3nc2-1 , state its measured pIC50.
Ans. > 8.02

Qu. Specify measured pIC50 for CC1COCCN1c1cc(-c2ccnn2C)c2ccnc(-c3ccn[nH]3)c2n1 (configuration not stated) + CC[C@@]1(O)C(=O)OCc2c1cc1n(c2=O)Cc2cc3c(CN(C)C)c(O)ccc3nc2-1 .
Ans. > 7.50

Qu. Retrieve pIC50 measured for CC(C)n1c(=O)n(C)c2cnc3cc(F)c(-c4ccc(OCCCN5CCCCC5)nc4)cc3c21 + CC[C@@]1(O)C(=O)OCc2c1cc1n(c2=O)Cc2cc3c(CN(C)C)c(O)ccc3nc2-1 and print it.
Ans. > 7.50

====

# Test system: 425362-245-T-J1 tumor spheroids, viability % test/control
# Run description: Anticancer human tumor 425362-245-T-J1 cell line growth inhibition;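 also: spheroids exposed to agents for 7 days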
# Conditions used: curve of first compound; second compound 100 µM; spheroids with HUVEC and MSC
pIC50: −log10 of the molar value.
Listing of recorded pIC50 by entry.

1) Cn1ncnc1[C@H]1c2n[nH]c(=O)c3cc(F)cc(c23)N[C@@H]1c1ccc(F)cc1 + Cn1nnc2c(C(N)=O)ncn2c1=O :: > 8.02

Qu. For CC(C)n1c(=O)n(C)c2cnc3cc(F)c(-c4ccc(OCCCN5CCCCC5)nc4)cc3c21 + Cn1nnc2c(C(N)=O)ncn2c1=O , write its pIC50.
Ans. > 7.50

Qu. Indicate its recorded pIC50; the compound in question is [2H]c1nc(C)nc([2H])c1-c1cc(NC[C@@H](C)c2cccc3c(C(=O)NC)ccnc23)ncn1 + Cn1nnc2c(C(N)=O)ncn2c1=O
Ans. < 5.00
